Task for the reader: assign each of the following compounds its reported z-score.
Assay: JC-1 mitochondrial signal, unstimulated myeloma cells – cell-based, JC-1 fluorescence, RPMI8226, 24 h, 100 nL compound, profiling panel (AID 1169); note: test concentration not given here
Details: JC-1 mitochondrial potential fluorescence, higher = more signal

Quick one: z-score of COc1cccc(C)c1NC(=O)O[C@H]1[C@H](OC(=O)Nc2ccccc2)[C@H](OC(=O)Nc2ccccc2)[C@@H](OC)O[C@@H]1CO ?
-1.1

Query COc1ccc(C#Cc2ccc3c(c2)[C@]2(C(=O)N3)[C@H](C(=O)O)[C@H]3C(=O)O[C@H](c4ccccc4)[C@H](c4ccccc4)N3[C@@H]2c2ccc(OCCO)cc2)cc1 next
-1.23

Okay, and CCCNC(=O)[C@@H]1c2ccccc2C(=O)N(CC23CC4CC(CC(C4)C2)C3)[C@H]1c1ccc(CO)cc1 ?
-0.236

Ok, now COCCOC(=O)N1C(=O)[C@@]2(c3cc(C#CCCO)ccc31)[C@H](C(=O)N1CCc3cc(OC)c(OC)cc3C1)[C@H]1C(=O)O[C@H](c3ccccc3)[C@H](c3ccccc3)N1[C@@H]2c1ccc(OCCO)cc1
-0.532

Can you handle O=C1c2ccccc2[C@](Cc2ccccc2I)(C(=O)NCC(F)(F)F)[C@H](c2ccc(CO)cc2)N1Cc1ccccc1 next?
-0.332

Moving on to the next compound: COc1cc(C(O)C2C=CC3C(=O)N(C)C(=O)C3N2NC(=O)OC(C)(C)C)cc(OC)c1OC (stereo unspecified)
-0.872

====

Experiment: JC-1 mitochondrial signal, unstimulated myeloma cells – cell-based, JC-1 fluorescence, RPMI8226, 24 h, 100 nL compound, profiling panel (AID 1169); note: test concentration not given here
Conditions: JC-1 mitochondrial potential fluorescence, higher = more signal
Parameter threshold = -0.2. Response is label 1 when z-score meets or exceeds it, else label 0.

Determine whether this compound has z-score no lower than -0.2: COCCOC(=O)N1C(=O)[C@@]2(c3cc(C#Cc4ccc(OC)cc4)ccc31)[C@H](c1ccc(OCCO)cc1)N1[C@H](c3ccccc3)[C@H](c3ccccc3)OC(=O)[C@H]1[C@@H]2C(N)=O
label 0

// query: C[N+](C)(C)CCCC[C@@H]1NC(=O)[C@H]2C[C@@H](C(=O)NCCCCCCN)[C@@H](c3cccc(OCCO)c3)N2C1=O
label 1

How about this compound: Cc1ccc(C(C)CC(O)C2C=CC3C(=O)N(Cc4ccccc4)C(=O)C3N2n2cnnc2)o1 (centres undefined)
label 1

Also check O=C1O[C@H](c2ccccc2)[C@H](c2ccccc2)N2[C@H]1[C@@H](C(=O)N1CCN(c3ncccn3)CC1)[C@]1(C(=O)Nc3ccc(C#CCCO)cc31)[C@H]2c1ccccc1OCCO
label 0

Quick one: C=C(COC)C(=O)CC[C@H](OC(=O)c1ccccc1-c1ccccc1C(=O)O)c1ccc(CO)o1
label 1

Also check CC1CC/C=C\[C@H]2OC34C=CCN(Cc5ccccc5)C(=O)[C@H]3N(CCO)C(=O)[C@@H]4C2C(=O)O1 (some centres undefined)
label 0

What do you get for COCCOC(=O)N1C(=O)[C@@]2(c3cc(C#CC4(O)CCCCCC4)ccc31)[C@H](C(=O)NC[C@H](O)c1ccccc1)[C@H]1C(=O)O[C@H](c3ccccc3)[C@H](c3ccccc3)N1[C@@H]2c1ccc(OCCO)cc1 ?
label 0

[N-]=[N+]=Nc1ccccc1[C@@H]1OC(c2ccc(OCCCO)cc2)=N[C@]1(CCS(=O)(=O)c1ccccc1)C(=O)NCc1ccccc1 ?
label 0

Can you check C[C@]12C(=O)N(CCCO)[C@@H]3C(=O)N(c4ccc(Cl)cc4)CC=CC31O[C@@H]1/C=C\CCCOC(=O)C12 (some centres undefined) next?
label 1

Next compound up: C[N+](C)(C)CCCCCCNC(=O)[C@H]1C[C@H]2C(=O)N3CCC[C@H]3C(=O)N2[C@H]1c1cccc(OCCO)c1
label 1

Also C=C(CCCC)/C(=C/C[C@@H](OC(=O)c1ccncc1)c1ccccc1OCCO)c1cc(C(=O)OC)ccc1OC , if possible.
label 0

Field entry: Cc1ccc(S[C@]2(C(=O)NCCN3CCOCC3)CC(=O)N(C3Cc4ccccc4C3)[C@@H]2c2ccc(CO)cc2)cc1
label 1

Note, next up: CCOC(=O)C[C@H]1[C@H](OC(=O)c2cc3ccccc3oc2=O)[C@@H](NC(=O)c2ccc3ccccc3n2)c2cc(OCCCO)ccc2N1C(=O)c1ccc2ccccc2n1
label 1

Please answer likewise for C=C(/C(=C/C[C@@H](OC(=O)c1ccncc1)c1ccccc1OCCO)c1cnc2ccccc2c1)C(C)C
label 1

Do the same for COCCCNC(=O)[C@]1(Cc2ccccc2CN=[N+]=[N-])N=C(c2ccc(OCCCO)cc2)O[C@@H]1c1ccccc1CN=[N+]=[N-] please
label 0

Try this compound too: CN(C)C(=O)[C@@]1(CCC(=O)OC(C)(C)C)N=C(c2ccc(OCCCO)cc2)O[C@H]1c1ccccc1N=[N+]=[N-]
label 0

Field entry: CN1C(=O)C2C=CC(C(O)COCc3ccccc3)N(Nc3ccccc3)C2C1=O (centres undefined)
label 1

Next record, please: C=C(/C(=C/C[C@@H](OC(=O)c1ccncc1)c1cccc(OCCO)c1)c1cc(C(=O)OC)ccc1OC)C(C)C
label 0

CN(C)C(=O)[C@@]1(CCC(=O)OC(C)(C)C)COC(c2ccc(OCCCO)cc2)=N1 ?
label 1

What do you have for [N-]=[N+]=NCc1ccccc1[C@H]1OC(c2ccc(OCCCO)cc2)=N[C@@]1(Cc1ccccc1N=[N+]=[N-])C(=O)NCCN1CCOCC1 ?
label 0

# repeat for O=C1N(CCS(=O)(=O)c2ccccc2)c2ccccc2[C@H]2OC(c3ccc(OCCCO)cc3)=N[C@@]12CCS(=O)(=O)c1ccccc1
label 0

Then O=C1O[C@H](c2ccccc2)[C@H](c2ccccc2)N2[C@H]1[C@@H](C(=O)N1CCN(c3ncccn3)CC1)[C@]1(C(=O)Nc3ccc(C#CCCO)cc31)[C@H]2c1ccc(OCCO)cc1 ?
label 0

Consider next the compound O=C(O)[C@@]1(Cc2ccccc2)COC(c2ccc(OCCCO)cc2)=N1 in the same way.
label 1

Next entry: COC(=O)[C@@]1(Cc2ccccc2N=[N+]=[N-])N=C(c2ccc(OCCCO)cc2)O[C@H]1c1ccccc1
label 0

// query: CCCNC(=O)[C@@]1(Sc2ccc(C)cc2)CC(=O)N(Cc2ccccc2)[C@@H]1c1ccc(CO)cc1I
label 0

Same for Cc1cc(C)c(C(O)C2C=CC3C(=O)N(c4ccccc4)C(=O)C3N2Nc2ccccc2)c(C)c1 (centres undefined)
label 0

Now the compound COc1ccc([Si](C)(C)[C@@H]2[C@@H](CC(=O)N3Cc4ccccc4C[C@H]3CO)O[C@]3(C(=O)N(Cc4cccc(N5CCCCC5=O)c4)c4ccccc43)[C@H]2C)cc1
label 0

Next up: CCCCC(=C=CC[C@H](O)c1cccc(OCCO)c1)C[C@H](O)COCc1ccccc1
label 1

Thanks! And CC(C)[Si](C#C[Si](C(C)C)(C(C)C)C(C)C)(O[C@H](C)c1cn(Cc2cccc(Cl)c2)nn1)C(C)C ?
label 1

====

Assay: plasmodial surface anion channel blockers, osmotic lysis – cell-based, P. falciparum Indochina, OD700, 2 h, primary screen (AID 1155);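 note: lysis reports solute entry through the parasite surface anion channel PSAC; channel blockers reduce lysis of infected cells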
Conditions: P. falciparum Indochina infected erythrocytes, higher = more signal, called active from +8 up or from −8 down
Classes by z-score: class A = under 0.4, class B = from 0.4 up to 2, class C = 2 and over

Classify this molecule: C=CC[C@]1(C(=O)NCC(O)CO)N=C(c2ccc(OCCCO)cc2)O[C@H]1c1ccccc1N=[N+]=[N-] (some centres undefined)
class C

Let us now turn to CC1CC/C=C\[C@H]2OC34C=CCN(Cc5ccccc5)C(=O)[C@H]3N(CCO)C(=O)[C@@H]4C2C(=O)O1 (some centres undefined)
class A

Continue with O=C1C2C=CC(C(O)c3ccc(Br)cc3)N(Nc3ccccc3)C2C(=O)N1c1ccccc1 (centres undefined)
class B

Moving on to COCCOC(=O)N1C(=O)[C@@]2(c3cc(C#CCC(C(=O)OC)C(=O)OC)ccc31)[C@H](C(=O)N1CCCCCCC1)[C@H]1C(=O)O[C@H](c3ccccc3)[C@H](c3ccccc3)N1[C@@H]2c1ccc(O)cc1
class B

Another: C=C[C@@H](O)[C@H]1CC(c2ccccc2)=NO1
class B

Also COc1ccc([Si](C)(C)[C@@H]2[C@@H](CCO)O[C@]3(C(=O)N(Cc4cccc(N5C(=O)COc6ccccc65)c4)c4ccccc43)[C@H]2C)cc1 , if possible.
class C

Also need O=C(Nc1cc(Br)ccc1C(=O)NCc1cccc(O)c1)c1ccccc1 , thanks.
class C

Now try CC(C)NC(=O)[C@@H]1c2ccccc2C(=O)N(Cc2cc(C(F)(F)F)cc(C(F)(F)F)c2)[C@H]1c1ccc(CO)cc1 .
class A

Queued: CCOC(=O)C[C@H]1[C@H](OC(=O)Cc2ccc3c(c2)OCO3)[C@@H](NC(=O)c2ccccc2)c2cc(OCCCO)ccc2N1C(=O)c1ccc2ccccc2n1
class A

And for COC(=O)C(CC#Cc1ccc2c(c1)[C@]1(C(=O)N2)[C@H](c2ccc(O)cc2)N2[C@H](c3ccccc3)[C@H](c3ccccc3)OC(=O)[C@H]2[C@@H]1C(N)=O)C(=O)OC ?
class B

Item: COC(=O)C(CC#Cc1ccc2c(c1)[C@]1(C(=O)N2)[C@H](C(=O)N2CCc3cc(OC)c(OC)cc3C2)[C@H]2C(=O)O[C@H](c3ccccc3)[C@H](c3ccccc3)N2[C@@H]1c1ccc(OCCO)cc1)C(=O)OC
class C

Another: O=C1NC(=O)C2C1C=CC(C(O)c1ccc(-c3ccccc3)s1)N2Nc1ccccn1 (centres undefined)
class B

Same read-out for COc1ccc([Si](C)(C)[C@@H]2[C@@H](CCO)O[C@]3(C(=O)N(Cc4ccccc4)c4ccc(N5CCCCC5=O)cc43)[C@H]2C)cc1 ?
class B
